Where do these numbers come from? They come from PubChem BioAssay (NCI).

Overview of reported growth across a group of compounds:
system: NCI-H322M lung; test: NCI-60 one-dose screen, 48 h (100 = growth as untreated, 0 = no growth, -100 = all killed); conditions: 10 µM unless noted
This is part of a sample that, as a whole, favours compounds with a hit. Of some 83,000 tested, about 20% had one in any assay. The source made the active and inactive calls. How the source made its calls: active means growth percent below 10; inactive means the rest.
measuredParameter: growth

> print(dat)
                                smilesinput  measuredparameter                    result
1  COc1ccc(Cn2cnc3cc(C(=O)Nc4cccc5ccccc45)ccc32)c(OC)c1             growth    45% [30 µM] (inactive)
2                        C#CC[C@H](N)C(=O)O             growth  97.8% [20 µM] (inactive)
3  CS(=O)(=O)c1ccc(-c2[nH]c3ccc(F)cc3c2/C=N/O)cc1             growth          90.1% (inactive)
4   C(=C\c1nc2ccccc2[nH]1)/c1nc2ccccc2[nH]1             growth          98.6% (inactive)
5  CN1CCN(c2ccc3nc(/N=C/c4ccc5sc(-c6ccc([N+](=O)[O-])cc6)nc5c4)sc3c2)CC1             growth           105% (inactive)
6  c1ccc([P+](CCCc2n(Cc3ccc4ccccc4c3)c3ccccc3[n+]2Cc2ccc3ccccc3c2)(c2ccccc2)c2ccccc2)cc1             growth          63.8% (inactive)

###

system: NCI-H322M lung; experiment: NCI-60 one-dose screen, 48 h; details: 10 µM unless noted
About 83,000 compounds went through this panel and 20% of them were active in at least one assay; those are over-represented in the sample as a whole. Calls of active or inactive are those of the source. How the source made its calls: active means growth percent below 10; inactive means the rest.
Classes used: active, inactive

> print(dat)
                                smilesinput  assignedlabel
1        CN(C)c1ccc2cc(-c3ccccc3F)c(N)nc2c1       inactive
2  COc1cccc(-c2cnco2)c1OCc1c(C)c(COc2c(OC)cccc2-c2cnco2)c(C)c(COc2c(OC)cccc2-c2cnco2)c1C       inactive
3  O=S(=O)(NCCNc1cc(-c2c(-c3cccc(O)c3)nc3sccn23)ccn1)c1ccc(Cl)cc1       inactive
4  C=CCO[C@H]1CO[C@H]2[C@@H]1OC[C@@H]2Oc1ccc(Nc2ccnc(Nc3ccc(O[C@H]4CO[C@H]5[C@@H]4OC[C@@H]5OCC=C)c(Cl)c3)n2)cc1Cl         active

###

test system: OVCAR-3 ovarian; assay: NCI-60 one-dose screen, 48 h (100 = growth as untreated, 0 = no growth, -100 = all killed); settings: 10 µM unless noted
The panel holds about 83,000 compounds, 20% with a hit somewhere; the sample as a whole holds those more often. The source made the active and inactive calls. The calls were made as follows: active = growth percent below 10; inactive = the rest.
Overview of reported growth across a group of compounds:
measuredParameter: growth

> print(dat)
                                   compound  measuredparameter            result
1  CCCCOc1ccc(NC(=O)n2nc(N=NN(C)C)c3ccc(Cl)cc32)cc1             growth   104% (inactive)
2  OC(c1cccc(OCc2ccccc2)c1)c1nnc(-c2ccccc2)o1 (stereo not given)             growth   104% (inactive)
3  CN(C)CCN1C(=O)c2cccc3c(-c4ccc(-c5nc6c7ccccc7c7ccccc7c6[nH]5)cc4)ccc(c23)C1=O             growth   117% (inactive)
4  O=C1CSC(c2ccccc2O)N1c1nnc(Cn2cnnc2)o1 (stereo not given)             growth  91.2% (inactive)
5         Cc1cc(-c2ccccc2)cc(SC#N)[n+]1[O-]             growth  39.6% (inactive)

###

Overview of reported growth across a group of compounds:
test system: SF-295 CNS; assay: NCI-60 one-dose screen, 48 h (100 = growth as untreated, 0 = no growth, -100 = all killed); conditions: 10 µM unless noted
Compounds without any hit were thinned out: in the full panel of roughly 83,000, 20% have a hit. The source made the active and inactive calls. How the source made its calls: active means growth percent below 10; inactive means the rest.
measuredParameter: growth

> print(dat)
                                    compound                    result
 1  C=C1C(=O)O[C@H]2[C@H]1CC/C(COC(=O)/C=C\C(=O)NCc1ccc(Cn3c(=O)sn(CCCI)c3=O)cc1)=C\CC[C@@]1(C)O[C@@H]21            58% (inactive)
 2  CN1CCN(c2ccc(Nc3ncc(Cl)c(NC[C@@H]4CCCO4)n3)cc2)CC1          31.3% (inactive)
 3              CCN(CC)CCCNC(=O)c1ccc(N)cc1O          99.7% (inactive)
 4  Cc1c(C)c2c(c(C)c1NC(=O)/C=C\C(=O)O)CCC(C)(CCCC(C)CCCC(C)CCCC(C)C)O2 (stereo not given)          66.3% (inactive)
 5  Cc1ccc(-n2nnc(C3=NCCc4c3[nH]c3ccc(Cl)cc43)c2C)cc1          70.6% (inactive)
 6  Cn1cc(-c2ccc3ncc(-c4ccc(CC(=O)Nc5cc(C(C)(C)C)nn5C)cc4)cc3c2)cn1  12.2% [30 µM] (inactive)
 7           O=S(=O)(Cc1ccccc1)c1nc2ccccc2s1           109% (inactive)
 8  CCOC(=O)c1c(C)nc2c(c1N)/C(=C/c1cc(OC)c(OC)c(OC)c1)C(=O)N2c1ccc(OC)cc1          88.1% (inactive)
 9  O=C1Nc2ccccc2/C1=N/N=C/c1ccc(OC2OC(CO)C(O)C(O)C2O)cc1 (stereo not given)           110% (inactive)
10  Cc1csc(NC(=O)c2sc3nc(-c4cccs4)ccc3c2N)n1          99.7% (inactive)

###

test system: UO-31 renal; experiment: NCI-60 one-dose screen, 48 h; settings: 10 µM unless noted
The panel holds about 83,000 compounds, 20% with a hit somewhere; the sample as a whole holds those more often. The source made the active and inactive calls. The calls were made as follows: active = growth percent below 10; inactive = the rest.
Classes used: active, inactive

> print(dat)
                                    compound  assignedlabel
 1  Clc1ccc(-c2nc(NCCc3ccccc3)nc3c(NCCc4ccccc4)cnn23)cc1       inactive
 2  C=C1C(=O)O[C@H]2[C@H]1CC/C(Cn1cc(CNCCc3c[nH]c4ccc(Cl)cc34)nn1)=C\CC[C@@]1(C)O[C@@H]21       inactive
 3   NC(=O)c1c(NC(=O)c2ccccn2)sc2c1CCC(=O)C2         active
 4  COc1ccc(C(=O)/C=C/C23c4ccccc4C(c4ccccc42)C2C(=O)NC(=O)C23)cc1 (stereo not given)       inactive
 5   Cc1cc(=O)c2cc3nc(-c4cccnc4)oc3c(Br)c2o1       inactive
 6                            CC(=O)Nc1nccs1       inactive
 7  O=C1CSC(c2ccc(O)cc2)N1c1nnc(Cn2cnnc2)o1 (stereo not given)       inactive
 8            O=C1Nc2ccccc2/C1=N/N=C/c1ccsc1       inactive
 9  CC(C)(C)Nc1c(-c2c3ccccc3cc3ccccc23)nc2ccccn12       inactive
10  C=C1C(=O)O[C@H]2[C@H]1CC/C(COC(=O)/C=C\C(=O)NCc1ccc(Cn3c(=O)sn(-c4ccc(Cl)cc4)c3=O)cc1)=C\CC[C@@]1(C)O[C@@H]21         active

###

test system: HS 578T breast; assay: NCI-60 one-dose screen, 48 h (100 = growth as untreated, 0 = no growth, -100 = all killed); conditions: 10 µM unless noted
This is part of a sample that, as a whole, favours compounds with a hit. Of some 83,000 tested, about 20% had one in any assay.
measuredParameter: growth (%)

> print(dat)
                                   compound  measurednumber
1  COc1ccc(C(=O)/C=C/C23c4ccccc4C(c4ccccc42)C2C(=O)NC(=O)C23)cc1 (centres undefined)            77.6
2           NC(=S)c1csc(CCNC(=O)c2ccccc2)n1             102
3  Cc1ccc(S(=O)(=O)Nc2sccc2-c2nc(-c3ccccc3)no2)cc1              97
4  O=C(/C=C/C12c3ccccc3C(c3ccccc31)C1C(=O)NC(=O)C12)c1ccc(Cl)cc1 (centres undefined)            11.6
5  CSc1nc(N)c(CNC(C)c2ccccc2)c(=O)n1C (centres undefined)            99.6
6                CC(C)OC(=O)NNC(=O)c1ccncc1             106
7  O=C(/C=C/C12c3ccccc3C(c3ccccc31)C1C(=O)N(c3ccccc3)C(=O)C12)c1ccccc1 (centres undefined)            20.7
8  C=C(C)[C@@H]1CC[C@]2(C(=O)NCC(=O)O)CC[C@]3(C)[C@H](CC[C@@H]4[C@@]5(C)Cc6c([nH]c7ccccc67)C(C)(C)[C@@H]5CC[C@]43C)[C@@H]12            56.9
9  CCOc1ccc(-c2nc3ccc(-c4nc5ccc(N6CCN(C)CC6)cc5[nH]4)cc3[nH]2)cc1OCC            11.1
